Where these numbers come from: ChEMBL document CHEMBL3885861

- Species: Rattus norvegicus
- Assay Name: Open TG-GATES - Regimen: Single
- Assay type: toxicity, organism-based, Sprague-Dawley
- Parameters: regimen Single, gender Male, age 6 weeks
- Condition Notes: in vivo, po, 1000 mg/kg, 3 h, tissue Plasma, route gavage, dose level High

[
  {
    "Molecule": "COc1ccc2[nH]c([S+]([O-])Cc3ncc(C)c(OC)c3C)nc2c1 (centres undefined)",
    "Quantity Unit": "meq/L",
    "K": 4
  },
  {
    "Molecule": "CCOC(=O)CCC(=O)O[C@H]1[C@H](O[C@@H]2[C@@H](C)[C@H](O[C@H]3C[C@@](C)(OC)[C@@H](O)[C@H](C)O3)[C@@H](C)C(=O)O[C@H](CC)[C@@](C)(O)[C@H](O)[C@@H](C)C(=O)[C@H](C)C[C@@]2(C)O)O[C@H](C)C[C@@H]1N(C)C [ERYTHROMYCIN ETHYLSUCCINATE]",
    "Quantity Unit": "meq/L",
    "K": 3.7
  },
  {
    "Molecule": "CC(C)OC(=O)C(C)(C)Oc1ccc(C(=O)c2ccc(Cl)cc2)cc1 [FENOFIBRATE]",
    "Quantity Unit": "meq/L",
    "K": 4.3
  },
  {
    "Molecule": "COC1=CC(=O)C[C@@H](C)[C@]12Oc1c(Cl)c(OC)cc(OC)c1C2=O",
    "Quantity Unit": "meq/L",
    "K": 4
  }
]

---

Recorded measurements of Cl, one per entry
- Species: Rattus norvegicus
- Assay Name: Open TG-GATES - Regimen: Daily Repeat
- Assay type: toxicity, organism-based, Sprague-Dawley
- Design: regimen Daily Repeat, gender Male, age 6 weeks
- Condition Notes: in vivo, po, 100 mg/kg, 72 h, tissue Plasma, route gavage, dose level Low, time 3 day

[
  {
    "Compound": "COC1=CC(=O)C[C@@H](C)[C@]12Oc1c(Cl)c(OC)cc(OC)c1C2=O",
    "Cl / meq/L": 103.8
  },
  {
    "Compound": "CCOc1ccc(NC(=O)CC(C)O)cc1 (stereo not given)",
    "Cl / meq/L": 105.6
  },
  {
    "Compound": "NC(N)=Nc1nc(CSCCC(N)=NS(N)(=O)=O)cs1",
    "Cl / meq/L": 102.8
  },
  {
    "Compound": "CCOC(=O)CCC(=O)O[C@H]1[C@H](O[C@@H]2[C@@H](C)[C@H](O[C@H]3C[C@@](C)(OC)[C@@H](O)[C@H](C)O3)[C@@H](C)C(=O)O[C@H](CC)[C@@](C)(O)[C@H](O)[C@@H](C)C(=O)[C@H](C)C[C@@]2(C)O)O[C@H](C)C[C@@H]1N(C)C [ERYTHROMYCIN ETHYLSUCCINATE]",
    "Cl / meq/L": 107.2
  },
  {
    "Compound": "COc1ccc2[nH]c([S+]([O-])Cc3ncc(C)c(OC)c3C)nc2c1 (stereo not given)",
    "Cl / meq/L": 101.8
  }
]

---

- Species on record: Rattus norvegicus
- Assay Name: Open TG-GATES - Regimen: Single
- Assay type: toxicity, organism-based, Sprague-Dawley
- Design: regimen Single, gender Male, age 6 weeks
- Condition Notes: in vivo, po, 100 mg/kg, 3 h, tissue Blood, route gavage, dose level High

[
  {
    "Record Smiles": "CC1=C(/C=C/C(C)=C/C=C/C(C)=C/CO)C(C)(C)CCC1",
    "Ht": "38.7%"
  },
  {
    "Record Smiles": "CN(C)CCCN1c2ccccc2CCc2ccccc21",
    "Ht": "40.4%"
  },
  {
    "Record Smiles": "CN(C)CCN(Cc1cccs1)c1ccccn1",
    "Ht": "40.2%"
  },
  {
    "Record Smiles": "CN(C)CCCN1c2ccccc2CCc2ccc(Cl)cc21",
    "Ht": "43.3%"
  }
]

---

- Organism: Rattus norvegicus
- Assay Name: Open TG-GATES - Regimen: Daily Repeat
- Assay type: toxicity, organism-based, Sprague-Dawley
- Parameters: regimen Daily Repeat, gender Male, age 6 weeks
- Condition Notes: in vivo, po, 300 mg/kg, 72 h, tissue Kidney, route gavage, dose level Middle, time 3 day
Reported Metric: KIDNEY_L

[
  {
    "Molecule": "COc1ccc2[nH]c([S+]([O-])Cc3ncc(C)c(OC)c3C)nc2c1 (stereo not given)",
    "Reported Metric": "KIDNEY_L",
    "Reported Value": "1 g"
  },
  {
    "Molecule": "CCOc1ccc(NC(=O)CC(C)O)cc1 (stereo not given)",
    "Reported Metric": "KIDNEY_L",
    "Reported Value": "1 g"
  },
  {
    "Molecule": "COC1=CC(=O)C[C@@H](C)[C@]12Oc1c(Cl)c(OC)cc(OC)c1C2=O",
    "Reported Metric": "KIDNEY_L",
    "Reported Value": "0.9 g"
  },
  {
    "Molecule": "NC(N)=Nc1nc(CSCCC(N)=NS(N)(=O)=O)cs1",
    "Reported Metric": "KIDNEY_L",
    "Reported Value": "1 g"
  },
  {
    "Molecule": "CCOC(=O)CCC(=O)O[C@H]1[C@H](O[C@@H]2[C@@H](C)[C@H](O[C@H]3C[C@@](C)(OC)[C@@H](O)[C@H](C)O3)[C@@H](C)C(=O)O[C@H](CC)[C@@](C)(O)[C@H](O)[C@@H](C)C(=O)[C@H](C)C[C@@]2(C)O)O[C@H](C)C[C@@H]1N(C)C [ERYTHROMYCIN ETHYLSUCCINATE]",
    "Reported Metric": "KIDNEY_L",
    "Reported Value": "1 g"
  }
]

---

- Organism: Rattus norvegicus
- Assay Name: Open TG-GATES - Regimen: Daily Repeat
- Assay type: toxicity, organism-based, Sprague-Dawley
- Set-up: regimen Daily Repeat, gender Male, age 6 weeks
- Condition Notes: in vivo, po, 0 mg/kg, […], tissue Plasma, route gavage, dose level Control, time 7 day
Reported RALB is given for each of the following molecules.

[
  {
    "Molecule": "CN(C)CCN(Cc1cccs1)c1ccccn1",
    "RALB / g/dL": 3
  },
  {
    "Molecule": "NNC(=O)c1ccncc1",
    "RALB / g/dL": 3.7
  },
  {
    "Molecule": "CC1=C(/C=C/C(C)=C/C=C/C(C)=C/CO)C(C)(C)CCC1",
    "RALB / g/dL": 3.2
  },
  {
    "Molecule": "NC(N)=Nc1nc(CSCCC(N)=NS(N)(=O)=O)cs1",
    "RALB / g/dL": 3.5
  },
  {
    "Molecule": "CN(C)CCCN1c2ccccc2CCc2ccccc21",
    "RALB / g/dL": 2.6
  },
  {
    "Molecule": "CCOC(=O)CCC(=O)O[C@H]1[C@H](O[C@@H]2[C@@H](C)[C@H](O[C@H]3C[C@@](C)(OC)[C@@H](O)[C@H](C)O3)[C@@H](C)C(=O)O[C@H](CC)[C@@](C)(O)[C@H](O)[C@@H](C)C(=O)[C@H](C)C[C@@]2(C)O)O[C@H](C)C[C@@H]1N(C)C [ERYTHROMYCIN ETHYLSUCCINATE]",
    "RALB / g/dL": 2.9
  },
  {
    "Molecule": "CCCNC(=O)NS(=O)(=O)c1ccc(Cl)cc1 [CHLORPROPAMIDE]",
    "RALB / g/dL": 2.7
  },
  {
    "Molecule": "CC(C)OC(=O)C(C)(C)Oc1ccc(C(=O)c2ccc(Cl)cc2)cc1 [FENOFIBRATE]",
    "RALB / g/dL": 2.7
  }
]

---

- Organism: Rattus norvegicus
- Assay Name: Open TG-GATES - Regimen: Single
- Assay type: toxicity, organism-based, Sprague-Dawley
- Parameters: regimen Single, gender Male, age 6 weeks
- Condition Notes: in vivo, po, 1000 mg/kg, 3 h, tissue Blood, route gavage, dose level High

[
  {
    "Compound": "NC(N)=Nc1nc(CSCCC(N)=NS(N)(=O)=O)cs1 [FAMOTIDINE]",
    "PT (s)": 12.6
  },
  {
    "Compound": "CCOC(=O)CCC(=O)O[C@H]1[C@H](O[C@@H]2[C@@H](C)[C@H](O[C@H]3C[C@@](C)(OC)[C@@H](O)[C@H](C)O3)[C@@H](C)C(=O)O[C@H](CC)[C@@](C)(O)[C@H](O)[C@@H](C)C(=O)[C@H](C)C[C@@]2(C)O)O[C@H](C)C[C@@H]1N(C)C [ERYTHROMYCIN ETHYLSUCCINATE]",
    "PT (s)": 15.4
  },
  {
    "Compound": "COc1ccc2[nH]c([S+]([O-])Cc3ncc(C)c(OC)c3C)nc2c1 (centres undefined) [OMEPRAZOLE]",
    "PT (s)": 13.3
  },
  {
    "Compound": "COC1=CC(=O)C[C@@H](C)[C@]12Oc1c(Cl)c(OC)cc(OC)c1C2=O [GRISEOFULVIN]",
    "PT (s)": 13.2
  }
]
